The reported numbers originate from the supplement of paper PMC8728848.

# reported glycan array binding signal (z-score); entries follow
# Measurement Target: Man(a1-3)[Man(a1-6)]Man(a1-6)[Man(a1-2)Man(a1-3)]Man(b1-4)GlcNAc(b1-4)GlcNAc
# Test Details: glycan array binding signal (z-score within array); higher = stronger binding
# Measurement Context: glycan notation: IUPAC condensed, linker removed
The sample as a whole holds a higher share of the strongest signals than the screen did.
Endpoint: glycan array binding signal (z-score)

[[record]]
binder = "VLRB.aGPA.23-GCN4-biotin (Petromyzon marinus) (protein) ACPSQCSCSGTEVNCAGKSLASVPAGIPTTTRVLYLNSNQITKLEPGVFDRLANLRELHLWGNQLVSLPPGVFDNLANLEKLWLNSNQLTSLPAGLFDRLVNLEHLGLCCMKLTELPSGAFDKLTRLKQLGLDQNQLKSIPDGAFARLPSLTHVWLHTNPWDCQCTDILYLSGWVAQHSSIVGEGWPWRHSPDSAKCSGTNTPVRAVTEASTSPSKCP"
measured_value = 0.041

[[record]]
binder = "Dectin2 (Homo sapiens), Q6EIG7 (protein) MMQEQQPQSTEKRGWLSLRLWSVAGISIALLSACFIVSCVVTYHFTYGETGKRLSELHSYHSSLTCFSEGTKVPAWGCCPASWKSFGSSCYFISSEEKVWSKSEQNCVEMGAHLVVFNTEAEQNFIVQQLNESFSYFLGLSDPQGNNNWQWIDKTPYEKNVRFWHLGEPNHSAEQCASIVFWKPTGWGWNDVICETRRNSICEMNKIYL"
measured_value = 1.16

[[record]]
binder = "PFL (Pseudomonas fluorescens) (protein) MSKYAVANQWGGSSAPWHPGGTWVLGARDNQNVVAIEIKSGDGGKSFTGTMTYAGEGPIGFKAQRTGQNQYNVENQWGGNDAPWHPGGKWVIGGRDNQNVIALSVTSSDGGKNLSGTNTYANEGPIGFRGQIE"
measured_value = 13.2

